Attribution: PubChem BioAssay (NCATS)

Assay protocol: Quantitative highthroughput screen to assess conditional lethalithy of SEM cells grown in RPMI1640 with unreated serum (RPMI+s) (AID 1963883); note: nearly all actives have a fitted effect of over 35% in size
Run parameters: SEM B-ALL cells, CellTiter-Glo viability, 48 h; series mostly up to 45.8 µM
Results filed as inconclusive are left out. Activity calls are given as the source filed them. Calls come from the whole dose curve; as a rule, active = well fitted cell-killing curve with a large enough effect; inconclusive = small, poorly fitted or top-dose-only effect, or effect the other way; inactive = no such curve, though single readings can be large or run the other way.
Possible outcomes: active, inactive

>  <Molecule>
CO[C@H]1C=CC=C(C)C(=O)NC2=CC(=O)C(NCCN(C)C)=C(C[C@@H](C)C[C@H](OC)[C@@H](O)[C@@H](C)C=C(C)[C@@H]1OC(N)=O)C2=O

>  <Group>
active

$$$$
>  <Molecule>
COc1cc2nc(N3CCCN(C)CC3)nc(NC3CCN(Cc4ccccc4)CC3)c2cc1OC

>  <Group>
active

$$$$
>  <Molecule>
C[C@H]1COc2c(N3CCN(C)CC3)c(F)cc3c(=O)c(C(=O)O)cn1c23

>  <Group>
active

$$$$
>  <Molecule>
CCOC1OC(=O)C[C@H]1NC(=O)[C@@H]1CCCN1C(=O)[C@@H](NC(=O)c1ccc(N)c(Cl)c1)C(C)(C)C (stereo partly drawn)

>  <Group>
inactive

$$$$
>  <Molecule>
Cc1cnn(C)c1C(=O)Nc1cc(Nc2ccc3c(C=Cc4ccccn4)n[nH]c3c2)ccc1F

>  <Group>
active

$$$$
>  <Molecule>
CS(=O)(=O)N1CCc2c(-c3cnc(N)nc3)nc(N3CCOCC3)nc21

>  <Group>
active

$$$$
>  <Molecule>
CCC(=O)O[C@]1(C(=O)CO)CC[C@H]2[C@@H]3CCC4=CC(=O)CC[C@]4(C)[C@@H]3CC[C@@]21C

>  <Group>
active

$$$$
>  <Molecule>
CN1C(C(=O)Nc2ccccn2)=C(O)c2sccc2S1(=O)=O

>  <Group>
inactive

$$$$
